Source of measurements: paper PMC9473745

- Target Desc: USP7 catalytic domain (Homo sapiens, UniProt Q93009)
- Sequence (Q93009 208-560): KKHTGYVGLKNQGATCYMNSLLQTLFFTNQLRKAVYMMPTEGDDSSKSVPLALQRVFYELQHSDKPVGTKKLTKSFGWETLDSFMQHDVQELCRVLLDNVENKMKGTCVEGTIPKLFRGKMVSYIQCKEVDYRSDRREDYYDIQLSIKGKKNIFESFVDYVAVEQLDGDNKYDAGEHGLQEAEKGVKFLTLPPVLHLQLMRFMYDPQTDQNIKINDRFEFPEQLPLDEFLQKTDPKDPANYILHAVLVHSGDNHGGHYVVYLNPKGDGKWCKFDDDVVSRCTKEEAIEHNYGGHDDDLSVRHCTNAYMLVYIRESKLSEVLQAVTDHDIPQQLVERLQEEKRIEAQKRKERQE
- Assay Notes: Ubiquitin rhodamine 110 kinetic assay, USP7 catalytic domain
- Assay type: biochemical
Test Readout: pIC50
Lab note: report pIC50 as minus log10 of the concentration in molar units, number only.

QUERY: # return recorded pIC50 for input CC(C)c1[nH]nc2c1C1(C(=O)Nc3ccccc31)C(C#N)=C(N)O2 (stereo not shown) [AV-9606–41]
RESULT: 5.42

---

- Target Desc: USP28 catalytic domain (Homo sapiens)
- Sequence (Q96RU2 149-703): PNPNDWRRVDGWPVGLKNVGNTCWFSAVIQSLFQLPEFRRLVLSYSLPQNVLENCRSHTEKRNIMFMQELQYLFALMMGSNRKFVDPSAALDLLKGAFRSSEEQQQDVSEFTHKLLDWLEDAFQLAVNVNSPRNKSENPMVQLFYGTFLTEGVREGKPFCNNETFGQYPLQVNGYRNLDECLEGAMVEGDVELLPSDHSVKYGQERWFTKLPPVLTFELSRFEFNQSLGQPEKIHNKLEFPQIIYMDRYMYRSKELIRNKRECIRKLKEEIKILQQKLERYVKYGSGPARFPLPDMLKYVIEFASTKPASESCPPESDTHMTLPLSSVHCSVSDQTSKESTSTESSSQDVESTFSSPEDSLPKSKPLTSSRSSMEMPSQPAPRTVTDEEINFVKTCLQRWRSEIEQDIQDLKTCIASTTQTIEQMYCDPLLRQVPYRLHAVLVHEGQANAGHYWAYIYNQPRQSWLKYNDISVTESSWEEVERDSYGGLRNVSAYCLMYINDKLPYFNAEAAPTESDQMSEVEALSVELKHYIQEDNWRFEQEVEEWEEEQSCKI
- Assay Notes: Ubiquitin rhodamine 110 kinetic assay, USP28
- Assay type: biochemical
- Reported Conditions: IC50, USP28
Test Readout: IC50

>>> result("CCCc1nc2sc3c(NCCc4ccc(OC)c(OC)c4)ncnc3c2c2c1CCC2")
"≤ 100 nM"

QUERY: Return reported IC50. Input compound: O=c1ccc(-c2noc(Cc3ccc(Cl)c(Cl)c3)n2)c[nH]1
RESULT: ≤ 100 nM
